# assayedSystem: T1, Human Galectin-3 protein (Acro Biosystems, GA3-H5129) (human, UniProt P17931 2-250)
# T1 construct: Bought protein; also called hGal3; Gal3; not shown: linker-spaced 6-histidine tag
# T1 sequence (P17931 2-250): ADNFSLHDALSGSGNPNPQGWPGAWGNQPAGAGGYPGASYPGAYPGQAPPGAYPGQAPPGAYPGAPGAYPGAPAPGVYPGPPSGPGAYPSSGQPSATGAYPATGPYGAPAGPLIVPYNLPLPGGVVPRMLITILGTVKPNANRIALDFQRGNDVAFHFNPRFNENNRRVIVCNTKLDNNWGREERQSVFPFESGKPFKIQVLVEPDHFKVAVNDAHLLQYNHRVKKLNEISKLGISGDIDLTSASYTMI
# runDescription: SPR Biacore T200, antibody captured, Galectin-3 analyte
experimentalReadout: pKd
Units for pKd: none; it is -log10 of a concentration expressed in mol/L.

QUERY: Field request: pKd | item: 2D10.2B2 (antibody, V domains shown, murine antibody) VH: QVQLQQSGPELVKPGASVKISCKASGYTFTDYYINWVKQRPGQGLEWIGWIYPGSNDTKYNEKFKGKATLTVDTSSSTAYMQLGSLTSEDSAVYFCANYFGCSGWFFDVWGTGTTVTVSS VL: DIVMTQAAFSNPVTLGTSASISCRSSKSLLHSDGITYLYWYLQRPGQSPQLLIYRMSNLASGVPDRFSGSGSGTDFTLRISRVEAEDVGVYYCAQMIEFPLTFGAGTILELK
RESULT: 9.12

QUERY: Which pKd value belongs to 15F10.2D6 (antibody, V domains shown, murine antibody) VH: EVQLVESGGGLVKPGGSLKLSCAASGFAFSSYAMSWVRQTPEKRLEWVATISDGGVYTYYTDHVKGRFTISRDNAEDNLYLQMSHLKSEDTAMYYCVRDGGYWGQGTTLTVSS VL: DVLMTQTPLSLPVSLGDQASISCRSSQSIVHNNGNTYLEWYLQKPGQSPKLLIYKVSNRFSGVPDRFSGSGSGTDFTLKISRVEAEDLGVYYCFQGSHVPLTFGGGTKLELK ?
RESULT: 8.69
